Origin of the recorded values: PubChem BioAssay

Parameter: viability. Scope: all listed entries.
- Experiment Notes: reversal of MRP1-mediated doxorubicin resistance, pilot screen, H69AR cells, doxorubicin co-treatment (AID 601)
- Measurement Setup: H69AR cells, CellTiter-Glo, 72 h; compound alone cytotoxicity; at 10 µM
I only need the number, in %, no unit after it.

>>> reported_result("CC(=O)c1ccccc1NS(=O)(=O)c1c(C)nn(-c2ccccc2)c1C")
88.3
>>> reported_result("CCOc1ccc2[nH]cc(C(=O)N3CCN(CC)CC3)c(=O)c2c1")
89.6

Shifting focus to the compound that follows.
Query: Please give measured viability of the following entry: O=C(CN1C(=O)CC(c2ccccc2)=Nc2ccccc21)NCc1ccco1
Response: 92.3
